Values from ChEMBL document CHEMBL5550157

Experiment: Selectivity index, ratio of IC50 for HEK293 cells to IC50 for antitrypanosomal activity against bloodstream Trypanosoma brucei Lister 427
Format: toxicity
Conditions: human, read-out: Ratio IC50
This section presents compounds with their documented selectivity ratio values.

// known answers, use as guide
{"Structure Smiles": "COc1cc(NC(=O)c2ccc(Cl)cc2)ccc1S(N)(=O)=O", "Result Type": "selectivity ratio", "Reported Result": "> 2.14"}
{"Structure Smiles": "COc1cc(NC(=O)c2cccc(C)c2)ccc1S(N)(=O)=O", "Result Type": "selectivity ratio", "Reported Result": "> 3.22"}
{"Structure Smiles": "COc1cc(NC(=O)c2ccc(Cl)c([N+](=O)[O-])c2)ccc1S(N)(=O)=O", "Result Type": "selectivity ratio", "Reported Result": 1.03}

Proceeding to the next compound to report its selectivity ratio.
(Q) Item under review: COc1cc(NC(=O)COCC(=O)Nc2ccc(S(N)(=O)=O)c(OC)c2)ccc1S(N)(=O)=O . Reported selectivity ratio?
(A) 1.15
